target.or.system: Albumin (Bos taurus) (UniProt P02769)
Sequence (P02769 whole entry, looked up): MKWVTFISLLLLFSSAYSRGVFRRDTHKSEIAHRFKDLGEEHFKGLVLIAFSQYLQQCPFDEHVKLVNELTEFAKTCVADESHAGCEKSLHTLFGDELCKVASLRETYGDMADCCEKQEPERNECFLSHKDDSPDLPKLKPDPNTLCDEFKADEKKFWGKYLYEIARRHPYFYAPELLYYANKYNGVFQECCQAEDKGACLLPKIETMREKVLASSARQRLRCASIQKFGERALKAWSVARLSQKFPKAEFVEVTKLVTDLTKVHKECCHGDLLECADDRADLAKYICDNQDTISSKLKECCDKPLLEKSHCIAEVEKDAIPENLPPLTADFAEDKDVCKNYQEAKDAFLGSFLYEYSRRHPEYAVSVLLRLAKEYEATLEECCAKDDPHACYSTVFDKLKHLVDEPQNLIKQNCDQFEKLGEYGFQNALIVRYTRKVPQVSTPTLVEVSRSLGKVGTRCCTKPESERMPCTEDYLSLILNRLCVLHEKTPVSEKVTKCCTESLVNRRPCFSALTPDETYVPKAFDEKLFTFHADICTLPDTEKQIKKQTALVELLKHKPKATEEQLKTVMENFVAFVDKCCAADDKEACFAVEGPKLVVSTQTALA
experiment.notes: bovine serum albumin binders on microarray, profiling panel, artefact control for SMM control protein annotation, biochemical, small-molecule microarray, Alexa647 label, 635/667 nm fluorescence (AID 1118);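 further: score merges 667 nm emission intensity and signal-to-noise per printed compound spot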
condition.summary: BSA-A647 binding, fluorescence 635 nm, higher = more signal
readout.type: composite z-score

Fill in: composite z-score of C=CCC1(CC=C)C[C@H]2CO[C@H](c3ccc(OC)cc3)N2C1=O is ___
-1.14

Now the molecule CC(=O)OC(C/C=C\B1OC(C)(C)C(C)(C)O1)c1ccccc1 (stereo not given)
-0.274

Now the molecule CC(C)C(=C=CC[C@@H](O)c1ccc(CO)o1)CCO
-0.596

Now the molecule C=C(C(=O)CC[C@@H](OC(C)=O)c1ccccc1OCCO)C(C)C
-0.952

Now the molecule CN(C)CCCC[C@@H]1NC(=O)[C@@H]2C[C@H](C(=O)NCCCCCNC(=O)CS)[C@H](c3cccc(OCCO)c3)N2C1=O
0.786

Now the molecule COc1ccc([Si](C)(C)[C@H]2[C@H](CCO)O[C@@]3(C(=O)N(Cc4ccc(N5C(=O)c6cccc7cccc5c67)cc4)c4ccccc43)[C@@H]2C)cc1
0.258

Now the molecule C=C(COC)C(=O)CC[C@@H](OC(=O)c1ccccc1-c1ccccc1C(=O)O)c1cccc(OCCO)c1
-0.39

Now the molecule CCCCC(=C=CC[C@H](O)c1cccc(OCCO)c1)CCO
0.15

Now the molecule COc1ccc(C#Cc2ccc3c(c2)[C@]2(C(=O)N3)[C@H](c3ccc(O)cc3)N3[C@H](c4ccccc4)[C@H](c4ccccc4)OC(=O)[C@H]3[C@@H]2C(N)=O)cc1
-0.524

Now the molecule C=CCOC(=O)[C@H]1[C@@H]2C(=O)O[C@@H](c3ccccc3)[C@@H](c3ccccc3)N2[C@@H](c2ccc(OCCOC(=O)[C@H]3C[C@H]4C(=O)N5CCC[C@H]5C(=O)N4[C@H]3c3cccc(OCCO)c3)cc2)[C@]12C(=O)Nc1ccccc12
-0.592

Now the molecule O=C1c2ccccc2[C@](Cc2ccccc2I)(C(=O)O)[C@H](c2ccc(CO)cc2)N1Cc1ccccc1Cl
0.953

Now the molecule C=CCC(OC(C)=O)[C@@H]1[C@@H](N(Cc2ccc(-c3cccc(C(F)(F)F)c3)o2)C(=O)c2ccc(-c3ccccc3)cc2)c2cc(OCCCO)ccc2N1C(=O)Cc1ccc(OC)cc1 (stereo not given in full)
-0.84

Now the molecule CCN(CC)c1ccc(N2CC=CC34O[C@@H]5C=CCOC(=O)[C@@H]5[C@H]3C(=O)N(C(CO)C(C)C)[C@@H]4C2=O)cc1 (stereo not given in full)
-0.819

Now the molecule [N-]=[N+]=NCc1ccccc1C[C@@]1(C(=O)O)N=C(c2ccc(OCCCO)cc2)O[C@@H]1c1ccccc1
0.433

Now the molecule CO[C@H]1O[C@H](CO)[C@@H](OC(=O)Nc2ccccc2)[C@H](OC(=O)Nc2ccccc2-c2ccccc2)[C@H]1OC(=O)Nc1ccccc1-c1ccccc1
0.925

Now the molecule CC(C)C[C@@H]1NC(=O)[C@@]23C(=O)N[C@@H](Cc4ccccc4)C2[C@H](C)[C@@]2(C)O[C@H]2C3/C=C/CC/C=C/CNC(=O)[C@@H](C)NC1=O (stereo not given in full)
-1.38

Now the molecule CC(C)C(CO)N1C(=O)[C@@H]2[C@H]3C(=O)OCC=C[C@H]3OC23C=CCN(Cc2ccccc2)C(=O)[C@@H]13 (stereo not given in full)
-1.27

Now the molecule CCOC(=O)C[C@H]1[C@H](OC(=O)Cc2ccc3c(c2)OCO3)[C@@H](NC(=O)c2ccc3ccccc3c2)c2cc(OCCCO)ccc2N1C(=O)c1ccc2ccccc2n1
0.661

Now the molecule CC(C)(C)OC(=O)CC[C@]1(C(=O)NCc2ccccc2)COC(c2ccc(OCCCO)cc2)=N1
0.875

Now the molecule O=C(NO)[C@]1(Cc2ccccc2)N=C(c2ccc(OCCCO)cc2)O[C@@H]1c1ccccc1
0.847

Now the molecule O=C(N1CCCCC1)[C@@]1(Cc2ccccc2)N=C(c2ccc(OCCCO)cc2)O[C@H]1c1ccccc1
0.955

Now the molecule [N-]=[N+]=NCc1ccccc1C[C@]1(C(=O)NCc2ccccc2)N=C(c2ccc(OCCCO)cc2)O[C@H]1c1ccccc1
0.992

Now the molecule CCCCCCC#C[Si](O[C@H](c1ccccc1)c1cn(Cc2ccccc2)nn1)(C(C)C)C(C)C
0.0774

Now the molecule CCN(CC)c1ccc(N2CC=CC34O[C@@H]5C=CCOC(=O)[C@@H]5[C@H]3C(=O)N(C(C)CO)[C@@H]4C2=O)cc1 (stereo not given in full)
-1.28

Now the molecule COc1ccc(CCNC(=O)[C@@]2(Sc3ccc(C)cc3)CC(=O)N(Cc3ccccc3)[C@@H]2c2ccc(CO)cc2I)cc1
-0.605

Now the molecule CC(C)CCC[C@@H](C)[C@H]1CC[C@@]2(C)C3=C(CC[C@]12C)[C@@]1(C)CC[C@H](OC(=O)CCl)C(C)(C)C1CC3 (stereo not given in full)
0.256

Now the molecule CC1CC/C=C\[C@H]2OC34C=CCN(C(C)C)C(=O)[C@H]3N(C(CO)C(C)C)C(=O)[C@@H]4C2C(=O)O1 (stereo not given in full)
-0.314

Now the molecule CCCC[C@@H](O)C1=C(C)C[C@H]2C(=O)N(C)C(=O)[C@H]2[C@H]1CO
0.799

Now the molecule O=C(O)[C@H]1C[C@H]2C(=O)NCC(=O)N2[C@H]1c1cccc(OCCO)c1
-0.542

Now the molecule C=C(CCCC)/C(=C/C[C@H](OC(=O)c1ccncc1)c1ccc(CO)o1)c1cnc2ccccc2c1
0.295

---

target.or.system: Torsin-1A-interacting protein 2 (Homo sapiens) (UniProt Q8NFQ8)
Sequence (Q8NFQ8 whole entry, looked up): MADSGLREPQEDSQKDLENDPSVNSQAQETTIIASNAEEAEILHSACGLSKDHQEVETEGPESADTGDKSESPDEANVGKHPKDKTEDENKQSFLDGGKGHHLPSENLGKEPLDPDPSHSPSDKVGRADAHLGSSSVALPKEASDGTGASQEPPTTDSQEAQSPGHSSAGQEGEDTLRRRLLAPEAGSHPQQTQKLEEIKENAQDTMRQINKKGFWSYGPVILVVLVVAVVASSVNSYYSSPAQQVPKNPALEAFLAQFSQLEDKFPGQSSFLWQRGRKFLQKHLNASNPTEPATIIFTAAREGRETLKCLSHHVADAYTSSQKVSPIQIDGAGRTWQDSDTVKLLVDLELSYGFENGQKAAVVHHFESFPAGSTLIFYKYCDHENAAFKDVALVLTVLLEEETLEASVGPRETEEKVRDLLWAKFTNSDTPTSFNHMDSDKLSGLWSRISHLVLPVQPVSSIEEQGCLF
experiment.notes: LULL1 binders on small-molecule microarray, primary screen, cell lysate, human LULL1 lysate, 635/667 nm fluorescence (AID 1092);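 further: probe is lysate of COS7 cells overexpressing human LULL1; score merges per-feature 667 nm fluorescence with signal-to-noise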
condition.summary: hLULL1 lysate binding, 635 nm fluorescence, higher = more signal
Could you please classify the records by composite z-score using these ranges: range A: < 1; range B: ≥ 1 and < 2; range C: ≥ 2

Kindly identify the class of C=CCN1C(=O)[C@@]2(O[C@@H](CCn3cc(CCO)nn3)[C@H]([Si](C)(C)c3ccc(OC)cc3)[C@H]2C)c2cc(NC(=O)c3ccc(OC)cc3)ccc21 .
range A

Now the compound CC(C)C[C@@H]1NC(=O)[C@H]2C[C@@H](C(=O)NCCCC[N+](C)(C)C)[C@@H](c3cccc(OCCO)c3)N2C1=O
range C

Now the compound CCCCCN1CC=CC23O[C@@H]4/C=C\CCC(C)OC(=O)C4[C@H]2C(=O)N(CCCO)[C@@H]3C1=O (some centres undefined)
range A

Now the compound C=CCC1(CC=C)C[C@H]2CO[C@H](c3ccc(OC)cc3)N2C1=O
range A

Now the compound COc1ccc([Si](C)(C)[C@H]2[C@H](CC(=O)N3Cc4ccccc4C[C@H]3CO)O[C@@]3(C(=O)N(Cc4cccc(N5C(=O)COc6ccccc65)c4)c4ccccc43)[C@@H]2C)cc1
range B

Now the compound O=c1n(-c2ccccc2)c(=O)n2n1CC(COc1ccccc1)=C1[C@@H](CCc3ccccc3)OB(O)C[C@@H]12
range B

Now the compound COCCCNC(=O)[C@@]1(CCS(=O)(=O)c2ccccc2)N=C(c2ccc(OCCCO)cc2)O[C@H]1c1ccccc1CN=[N+]=[N-]
range C

Now the compound COCCOC(=O)N1C(=O)[C@@]2(c3cc(C#CC4(O)CCCCCC4)ccc31)[C@H](c1ccccc1OCCO)N1[C@H](c3ccccc3)[C@H](c3ccccc3)OC(=O)[C@H]1[C@@H]2C(=O)Nc1nc2ccccc2s1
range C

Now the compound CC(C)C[C@@H]1NC(=O)[C@@H]2C[C@H](C(=O)NCCCCCNC(=O)CS)[C@H](c3cccc(OCCO)c3)N2C1=O
range C

Now the compound COc1ccc([Si](C)(C)[C@H]2[C@H](CC(=O)N(CCO)Cc3ccccc3)O[C@@]3(C(=O)N(Cc4ccc(N5CCC5=O)cc4)c4ccccc43)[C@@H]2C)cc1
range A

Now the compound C=C(COC)C(=O)CC[C@H](OC(=O)c1cccnc1)c1cccc(OCCO)c1
range A

Now the compound CCOC(=O)C[C@H]1[C@H](OC(=O)c2ccc(C(=O)c3ccccc3)cc2)[C@@H](NC(=O)Cc2ccc(OC)cc2)c2cc(OCCCO)ccc2N1C(=O)Cc1ccc(OC)cc1
range B

Now the compound COC(=O)C1=CC(c2ccc(CO)cc2)=CC(C2CC2)N(C)C=C1C(=O)OC (centres undefined)
range C

---

experiment.notes: small-molecule microarray binders of probe aEGFR, primary screen, biochemical, biotinylated probe, 635/667 nm fluorescence (AID 1097);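 further: probe is a biotinylated anti-EGFR antibody binding compounds printed on slides; score combines fluorescence near 667 nm and signal to noise of each spot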
condition.summary: higher = more signal
Criterion: composite z-score meeting or surpassing -0.1. Met: fulfilled. Not met: not fulfilled.

API: above_or_equal(metric=composite z-score, cutoff=-0.1) for item CCCNC(=O)[C@@H]1c2ccccc2C(=O)N(Cc2cc(C(F)(F)F)cc(C(F)(F)F)c2)[C@H]1c1ccc(CO)cc1
fulfilled

Now the molecule CO[C@H]1O[C@H](CO)[C@@H](OC(=O)Nc2ccccc2)[C@H](OC(=O)Nc2ccc3c(c2)OCO3)[C@H]1OC(=O)Nc1ccc2c(c1)OCO2
fulfilled

Now the molecule CCCNC(=O)[C@@]1(Sc2ccc(C)cc2)CC(=O)N(Cc2cc(C(F)(F)F)cc(C(F)(F)F)c2)[C@@H]1c1ccc(CO)cc1I
not fulfilled

Now the molecule C=CCNC(=O)[C@@H]1[C@H]2C(=O)O[C@H](c3ccccc3)[C@H](c3ccccc3)N2[C@H](c2ccc(O)cc2)[C@@]12C(=O)Nc1ccccc12
not fulfilled

Now the molecule COCCOC(=O)N1C(=O)[C@@]2(c3cc(C#CC4(O)CCCCCC4)ccc31)[C@H](c1ccccc1OCCO)N1[C@H](c3ccccc3)[C@H](c3ccccc3)OC(=O)[C@H]1[C@@H]2C(=O)Nc1nc2ccccc2s1
fulfilled

Now the molecule O=C1N(CCS(=O)(=O)c2ccccc2)Cc2ccccc2[C@@H]2OC(c3ccc(OCCCO)cc3)=N[C@]12Cc1ccccc1
fulfilled

Now the molecule COC(=O)C1=CC(c2ccc(CO)cc2)=CC(C2CC2)N(C)C=C1C(=O)OC (stereo unspecified)
not fulfilled

Now the molecule O=C1O[C@H](c2ccccc2)[C@H](c2ccccc2)N2[C@H]1[C@@H](C(=O)NC[C@H](O)c1ccccc1)[C@]1(C(=O)Nc3ccc(C#CC4(O)CCCCCC4)cc31)[C@H]2c1ccc(O)cc1
fulfilled

Now the molecule COc1ccc([Si](C)(C)[C@@H]2[C@@H](CCn3cc(CCO)nn3)O[C@]3(C(=O)N(Cc4ccc(N5C(=O)c6cccc7cccc5c67)cc4)c4ccccc43)[C@H]2C)cc1
fulfilled

Now the molecule O=c1n(-c2ccccc2)c(=O)n2n1CC(COc1ccccc1)=C1[C@@H](CCc3ccccc3)OB(O)C[C@@H]12
fulfilled

Now the molecule C=CCNC(=O)[C@H]1[C@@H]2C(=O)O[C@@H](c3ccccc3)[C@@H](c3ccccc3)N2[C@@H](c2ccccc2OCCO)[C@]12C(=O)N(C(=O)OCCOC)c1ccc(C#CCCO)cc12
fulfilled

Now the molecule C=C(COC)C(=O)CC[C@H](OC(=O)c1ccccc1-c1ccccc1C(=O)O)c1ccccc1OCCO
not fulfilled

Now the molecule CC(=O)OC(C/C=C\B1OC(C)(C)C(C)(C)O1)c1ccccc1 (stereo unspecified)
not fulfilled

Now the molecule Cc1ccc(N2C(=O)c3ccccc3[C@](C)(C(=O)NC3CC3)[C@@H]2c2ccc(CO)cc2)nc1
fulfilled

Now the molecule C=CCN1C(=O)[C@@]2(O[C@@H](CCn3cc(CCO)nn3)[C@H]([Si](C)(C)c3ccc(OC)cc3)[C@H]2C)c2cc(N3C(=O)c4cccc5cccc3c45)ccc21
fulfilled

Now the molecule CO[C@H]1O[C@H](CO)[C@@H](OC(=O)CCc2ccccc2)[C@@H]2OC(=O)[C@H](Cc3ccccc3)C/C=C/C[C@@H](Cc3ccccc3)C(=O)O[C@@H]12
not fulfilled

Now the molecule C=CCN1C(=O)[C@@]2(O[C@@H](CCO)[C@H]([Si](C)(C)c3ccc(OC)cc3)[C@H]2C)c2cc(N3C(=O)c4cccc5cccc3c45)ccc21
not fulfilled

Now the molecule COc1ccc(C#Cc2ccc3c(c2)[C@]2(C(=O)N3)[C@H](c3ccc(O)cc3)N3[C@H](c4ccccc4)[C@H](c4ccccc4)OC(=O)[C@H]3[C@@H]2C(N)=O)cc1
not fulfilled

Now the molecule COc1ccc([Si](C)(C)[C@@H]2[C@@H](CC(=O)N3CCC[C@H]3CO)O[C@]3(C(=O)N(Cc4ccc(N5CCC5=O)cc4)c4ccccc43)[C@H]2C)cc1
fulfilled

Now the molecule COCCCNC(=O)[C@@]1(Cc2ccccc2CN=[N+]=[N-])COC(c2ccc(OCCCO)cc2)=N1
fulfilled

Now the molecule COCCOC(=O)N1C(=O)[C@@]2(c3ccccc31)[C@H](C(=O)Nc1nc3ccccc3s1)[C@H]1C(=O)O[C@H](c3ccccc3)[C@H](c3ccccc3)N1[C@@H]2c1ccc(O)cc1
fulfilled

Now the molecule CC(C)C[C@@H]1NC(=O)[C@@]23C(=O)N[C@@H](Cc4ccccc4)C2[C@H](C)[C@@]2(C)O[C@H]2C3/C=C/C/C=C\CNC(=O)[C@H](Cc2ccccc2)NC1=O (stereo partly specified)
fulfilled

Now the molecule COc1ccc(/C=C/C(=O)c2cccc(OCC(=O)OC(C)(C)C)c2)cc1
not fulfilled

Now the molecule CC(C)C[C@@H]1NC(=O)[C@@]23C(=O)N[C@@H](Cc4ccccc4)C2[C@H](C)[C@@]2(C)O[C@H]2C3/C=C/CC/C=C/CNC(=O)[C@@H](C)NC1=O (stereo partly specified)
not fulfilled

Now the molecule C=CCNC(=O)[C@@H]1[C@H]2C(=O)O[C@H](c3ccccc3)[C@H](c3ccccc3)N2[C@H](c2ccc(O)cc2)[C@@]12C(=O)N(C(=O)OCCOC)c1ccc(C#Cc3ccc(OC)cc3)cc12
fulfilled

Now the molecule CC(C)NC(=O)[C@@H]1c2ccccc2C(=O)N(Cc2cc(F)cc(C(F)(F)F)c2)[C@H]1c1ccc(CO)cc1
fulfilled
